Give pKi for every item shown.
# Tested System: UniProt P41595
# Sequence (P41595 whole entry): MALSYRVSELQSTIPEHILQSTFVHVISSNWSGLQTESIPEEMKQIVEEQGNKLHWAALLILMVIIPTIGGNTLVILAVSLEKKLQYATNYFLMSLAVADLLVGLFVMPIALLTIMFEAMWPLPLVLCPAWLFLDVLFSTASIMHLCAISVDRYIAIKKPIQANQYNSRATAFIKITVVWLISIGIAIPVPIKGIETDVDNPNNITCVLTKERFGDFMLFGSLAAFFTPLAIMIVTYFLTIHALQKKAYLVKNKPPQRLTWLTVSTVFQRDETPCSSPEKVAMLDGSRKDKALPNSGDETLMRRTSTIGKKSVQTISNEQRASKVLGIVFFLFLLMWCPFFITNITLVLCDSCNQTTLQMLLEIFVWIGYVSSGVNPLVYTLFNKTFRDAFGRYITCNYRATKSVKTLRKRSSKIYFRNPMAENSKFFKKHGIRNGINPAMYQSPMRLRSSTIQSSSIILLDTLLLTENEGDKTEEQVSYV
# Assay: Binding affinity to human cloned 5-HT2B receptor in HEK 293 cells using [3H]- -5-HT as radioligand
pKi: −log10 of the molar value.

Query pKi on UniProt P41595 for Cc1sc2ccc(Cl)cc2c1S(=O)(=O)Nc1ccc2nccc(N3CCNCC3)c2c1 5.90

Also need CCc1c(S(=O)(=O)Nc2ccc3nccc(N4CCNCC4)c3c2)sc2ccc(Cl)cc12 , thanks. < 5.40

Also need Cc1c(S(=O)(=O)Nc2ccc3nccc(N4CCN(C)CC4)c3c2)sc2ccc(Cl)cc12 , thanks. < 5.00

Also need Cc1c(S(=O)(=O)Nc2ccc3nccc(N4CCN[C@@H](C)C4)c3c2)sc2ccc(Cl)cc12 , thanks. < 5.20

Also need Cc1cc(N2CCNCC2)c2cc(NS(=O)(=O)c3sc4ccc(Cl)cc4c3C)ccc2n1 , thanks. < 5.10

---

# Tested System: 5-hydroxytryptamine receptor 6 (Homo sapiens)
# Sequence (P50406 whole entry): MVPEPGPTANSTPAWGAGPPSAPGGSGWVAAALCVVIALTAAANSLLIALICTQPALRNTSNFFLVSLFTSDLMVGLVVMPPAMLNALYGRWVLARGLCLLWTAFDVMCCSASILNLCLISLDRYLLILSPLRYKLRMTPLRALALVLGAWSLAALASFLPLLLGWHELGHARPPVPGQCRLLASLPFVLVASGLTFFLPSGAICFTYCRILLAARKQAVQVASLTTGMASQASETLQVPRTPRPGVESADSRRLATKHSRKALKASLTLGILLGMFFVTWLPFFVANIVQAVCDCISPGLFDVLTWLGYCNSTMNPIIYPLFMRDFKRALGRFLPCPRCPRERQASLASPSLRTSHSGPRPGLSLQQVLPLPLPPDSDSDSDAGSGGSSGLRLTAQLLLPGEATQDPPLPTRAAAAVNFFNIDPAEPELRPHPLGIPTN
# Assay: Binding affinity against human 5-hydroxytryptamine 6 receptor
Measurement Name: Ki (nM)
Numbers only here, please. The scale is nM.

Could you share which Ki value was measured for Cc1c(S(=O)(=O)Nc2ccc3nccc(N4CCN5CCC[C@H]5C4)c3c2)sc2ccc(Cl)cc12 ? 2

Also need Cc1c(S(=O)(=O)Nc2ccc3ncc(N4CCN(C)CC4)cc3c2)sc2ccc(Cl)cc12 , thanks. 79.4

Also need Cc1c(S(=O)(=O)Nc2ccc3nccc(N4CCN[C@@H](C)C4)c3c2)sc2ccc(Cl)cc12 , thanks. 1.26

Also need Cc1c(S(=O)(=O)Nc2ccc3nccc(N4CCN[C@H](C(C)C)C4)c3c2)sc2ccc(Cl)cc12 , thanks. 20

Also need Cc1sc2cc(Cl)cc(Cl)c2c1S(=O)(=O)Nc1ccc2nccc(N3CCNCC3)c2c1 , thanks. 7.94

Also need O=S(=O)(Nc1ccc2nccc(N3CCNCC3)c2c1)c1ccc(I)cc1 , thanks. 1.58

Also need CCc1c(S(=O)(=O)Nc2ccc3nccc(N4CCNCC4)c3c2)sc2ccc(Cl)cc12 , thanks. 1.26

Also need Cc1c(S(=O)(=O)Nc2ccc3nccc(N4C[C@@H](C)N[C@@H](C)C4)c3c2)sc2ccc(Cl)cc12 , thanks. 5.01

Also need Cc1c(S(=O)(=O)Nc2ccc3nccc(N4CCN[C@H](C)C4)c3c2)sc2ccc(Cl)cc12 , thanks. 2

Also need Cc1cc(N2CCNCC2)c2cc(NS(=O)(=O)c3sc4ccc(Cl)cc4c3C)ccc2n1 , thanks. 1.26

Also need Cc1c(S(=O)(=O)Nc2ccc3nccc(N4CCNCC4)c3c2)oc2ccc(Cl)cc12 , thanks. 3.98

Also need O=S(=O)(Nc1ccc2nccc(N3CCNCC3)c2c1)c1cccc2c(Cl)cccc12 , thanks. 3.16

Also need Cc1c(S(=O)(=O)Nc2ccc3nccc(N4CCN(C)CC4)c3c2)sc2ccc(Cl)cc12 , thanks. 1

Also need Cc1sc2ccc(Cl)cc2c1S(=O)(=O)Nc1ccc2nccc(N3CCNCC3)c2c1 , thanks. 1

Also need Cc1cnc2ccc(NS(=O)(=O)c3sc4ccc(Cl)cc4c3C)cc2c1N1CCNCC1 , thanks. 2.51

Also need O=S(=O)(Nc1ccc2nccc(N3CCNCC3)c2c1)c1cc(Cl)cc(Cl)c1 , thanks. 25.1

Also need Cc1cc(S(=O)(=O)Nc2ccc3nccc(N4CCNCC4)c3c2)c(C)cc1Cl , thanks. 1.26

Also need Cc1c(S(=O)(=O)Nc2ccc3nccc(N4C[C@@H](C)NC[C@@H]4C)c3c2)sc2ccc(Cl)cc12 , thanks. 31.6

Also need CC(C)c1c(S(=O)(=O)Nc2ccc3nccc(N4CCNCC4)c3c2)sc2ccc(Cl)cc12 , thanks. 1.58
